Please respond with reported solubility kinetic for every item in the list.
# CONDITION_DESCRIPTION: buffer; pH 7.4; 200.0 µM

# annotated cases, reported solubility kinetic shown
MOLECULE	VAL
COc1cccc(CNCC(=O)NC(=O)NC2CCCC2)c1.O=C(O)C(=O)O	> 0.0593 mg/mL
Cc1cc(Nc2ccc(Br)cc2)nc(-c2ccccc2O)n1	< 0.0003 mg/mL

Okay, here is my list. What is solubility kinetic for each of these?
1. NC(N)=Nc1nc(-c2ccccc2)c2cc(F)ccc2n1
2. CC12CCC(C[N+](C)(C)C1)C2(C)C.[I-] (stereo not given)
3. O=[N+]([O-])c1c(NCCO)cc(N2CCC3(CC2)OCCO3)c2nonc12

["> 0.0422 mg/mL", "> 0.0464 mg/mL", "> 0.0548 mg/mL"]

Please supply solubility kinetic for each of the following items, keeping them in order.
1. O=C(NCC1CCCO1)c1cc(Br)c(Br)s1 (stereo not given)
2. Cc1ccc(-c2csc(NC(=O)c3cnccn3)n2)cc1C

1. > 0.0554 mg/mL
2. < 0.0002 mg/mL

For every item in the list below, what is its measured solubility kinetic?
1. O=C(NCc1ccco1)C1CC(c2ccc(F)cc2)=NO1 (stereo not given)
2. CN1CCCN(C(=O)c2cccc(Br)c2)CC1
3. NC(=O)CN1C(=O)C(=O)N(Cc2ccccc2)C1=O
4. CCOC(=O)c1cc(-c2csc(-c3cccc(Cl)c3)n2)on1

["0.008 mg/mL", "0.0354 mg/mL", "0.0387 mg/mL", "< 0.0004 mg/mL"]

Batch request: solubility kinetic per item, same order as input.
1. CC(=O)c1c(C)nc(-c2cccc([N+](=O)[O-])c2)n1O
2. Cc1cc(C)cc(N2C(N)=NC(N)=NC2c2ccccc2F)c1.Cl (stereo not given)
3. CC(=O)Nc1cccc(C(=O)NCCc2ccco2)c1
4. O=C(O)c1ccccc1-c1ccccc1C(=O)Nc1ccc2c(c1)CCC2

> 0.0392 mg/mL
> 0.0522 mg/mL
> 0.0408 mg/mL
> 0.0536 mg/mL

###

# CONDITION_DESCRIPTION: buffer; pH 7.4; 200.0 µM
OUTCOME_MEASURE: solubility kinetic (µg/mL)
One number for each entry, in µg/mL.

Previously resolved entries follow.
GIVEN_SMILES	VAL
Cc1cccc(NC(=O)NC(=O)c2ccccc2)n1	0.8
Cc1cc(C(=O)COC(=O)c2cnccn2)c(C)n1-c1ccc(Br)cc1	4.1

Below is a list of compounds. For each, state its recorded solubility kinetic.
1. S=c1nc(NCc2cccc(Cl)c2)c2ccccc2[nH]1
2. COC(CSc1ncnc2c1oc1nc3c(cc12)COC(C)(C)C3)OC

0.5
54.6

Parameter requested: solubility kinetic. Apply to each item below.
1. O=S(=O)(c1ccc(=S)[nH]c1)N1CCCCCC1
2. CCCc1cc(=O)[nH]c(SCC(=O)Nc2cccc3ccccc23)n1
3. CC(C)(C)c1ccccc1OCC(=O)NCc1ccccc1

1. 32
2. 3.4
3. 1.8

I have 2 compounds here; please give me solubility kinetic for each one.
1. O=C(Nc1ccccc1)O/N=C1/CCCc2occc21
2. CCCCCC#CCN1CCN(C23CC4CC(CC(C4)C2)C3)CC1

[16.6, 42.8]

Record solubility kinetic per entry; entries follow.
1. O=C(Cc1cccs1)NCCc1ccc(Cl)cc1
2. Cc1ccc(OCc2nc(C#N)c(N3CCCCC3)o2)cc1
3. Cc1cc(Br)ccc1NC(=S)NCCc1ccccc1
4. Cc1cc(C)c(/C=C(\C#N)S(=O)(=O)c2ccccc2)[nH]1
5. COc1ccc(OC)c(S(=O)(=O)NCCCn2ccnc2)c1
6. Cc1cc(=O)oc2cc(OCC(=O)NC3CCCCC3)ccc12

1: 40.5; 2: 4.9; 3: 8.6; 4: 0.5; 5: 41.6; 6: 7.5
